Target: HLA-A*02:11
Experiment: IEDB peptide-MHC binding, purified MHC/competitive/fluorescence; filed as Kd, often an IC50 or EC50 that approximates it; bounds were set here for any values at or beyond the usual limits of such assays
Conditions: source organism: Entamoeba histolytica HM-1:IMSS

seq: TLPGCLIIL
Kd: 4.65 µM

----------
Target: HLA-A*33:01
Assay: IEDB peptide-MHC binding, purified MHC/competitive/radioactivity; filed as Kd, often an IC50 or EC50 that approximates it; bounds were set here for any values at or beyond the usual limits of such assays
Conditions: source organism: Dengue virus 2 Jamaica/1409/1983
In this section we review reported Kd values for a set of sequences.

seq: QMWTLMYFHR
experimental-system: HLA-A*33:01
value-units: nM
Kd: 35.3
//
seq: FTNMEAQLIR
experimental-system: HLA-A*33:01
value-units: nM
Kd: 108
//
seq: FTDPASIAAR
experimental-system: HLA-A*33:01
value-units: nM
Kd: 125

----------
Target: HLA-B*58:01
Assay: IEDB peptide-MHC binding, purified MHC/competitive/radioactivity; filed as Kd, often an IC50 or EC50 that approximates it; bounds were set here for any values at or beyond the usual limits of such assays
Settings: source organism: Dengue virus 2 Jamaica/1409/1983
In this section we review reported Kd values for a set of sequences.

seq: WMSSEGAWKH
experimental-system: HLA-B*58:01
value-units: nM
Kd: 215

seq: ASGKLITEW
experimental-system: HLA-B*58:01
value-units: nM
Kd: 13.5

seq: RSVALVPHV
experimental-system: HLA-B*58:01
value-units: nM
Kd: 8.81

seq: ATGPISTLW
experimental-system: HLA-B*58:01
value-units: nM
Kd: 1.49

seq: LASSLLKNDI
experimental-system: HLA-B*58:01
value-units: nM
Kd: 717

seq: FASALTALND
experimental-system: HLA-B*58:01
value-units: nM
Kd: 1570

seq: RSLIGNEEY
experimental-system: HLA-B*58:01
value-units: nM
Kd: 27.2

----------
Target: HLA-B*48:01
Assay: IEDB peptide-MHC binding, purified MHC/direct/fluorescence; filed as Kd, often an IC50 or EC50 that approximates it; bounds were set here for any values at or beyond the usual limits of such assays
Conditions: source organism: Orthomarburgvirus marburgense

seq: LEHGLYPQL
Kd [nM]: 634

----------
Biological target: HLA-B*48:01
Assay: IEDB peptide-MHC binding, purified MHC/direct/fluorescence; filed as Kd, often an IC50 or EC50 that approximates it; bounds were set here for any values at or beyond the usual limits of such assays
Conditions: source organism: Dengue virus

seq: RRDKRSVAL
Kd [nM]: 153

----------
Target: HLA-B*45:06
Assay: IEDB peptide-MHC binding, purified MHC/competitive/fluorescence; filed as Kd, often an IC50 or EC50 that approximates it; bounds were set here for any values at or beyond the usual limits of such assays
Conditions: source organism: human gammaherpesvirus 4

seq: FTASVSTVV
experimental-system: HLA-B*45:06
Kd: ≥ 5 µM

----------
Molecular target: HLA-A*24:02
Experiment: IEDB peptide-MHC binding, purified MHC/competitive/fluorescence; filed as Kd, often an IC50 or EC50 that approximates it; bounds were set here for any values at or beyond the usual limits of such assays
Details: source organism: Influenza A virus (A/Harbin/1/1988(H1N2))
pKd: −log10 of the molar value.

seq: SFERFEIF
pKd: 6.62

----------
Molecular target: HLA-B*48:01
Experiment: IEDB peptide-MHC binding, purified MHC/direct/fluorescence; filed as Kd, often an IC50 or EC50 that approximates it; bounds were set here for any values at or beyond the usual limits of such assays
Conditions: source organism: Mycobacterium avium 104

seq: IAHVRDVVM
experimental-system: HLA-B*48:01
Kd: ≥ 20 µM

----------
Target: HLA-A*69:01
Assay: IEDB peptide-MHC binding, purified MHC/direct/fluorescence; filed as Kd, often an IC50 or EC50 that approximates it; bounds were set here for any values at or beyond the usual limits of such assays
Conditions: source organism: Giardia intestinalis
pKd: −log10 of the molar value.

seq: RTMPLSRFT
pKd: ≤ 4.70

----------
Target: HLA-A*02:01
Experiment: IEDB peptide-MHC binding, purified MHC/direct/fluorescence; filed as Kd, often an IC50 or EC50 that approximates it; bounds were set here for any values at or beyond the usual limits of such assays
Settings: source organism: Brucella abortus
quantity-name: Kd

seq: AENGWGFYF
measured-value: ≥ 20 µM

----------
Molecular target: HLA-B*27:03
Test: IEDB peptide-MHC binding, purified MHC/competitive/fluorescence; filed as Kd, often an IC50 or EC50 that approximates it; bounds were set here for any values at or beyond the usual limits of such assays
Settings: source organism: Vibrio parahaemolyticus AQ3810
quantity-name: Kd

seq: MLTNASGHA
measured-value: ≥ 20 µM

----------
Biological target: HLA-B*08:03
Experiment: IEDB peptide-MHC binding, purified MHC/direct/fluorescence; filed as Kd, often an IC50 or EC50 that approximates it; bounds were set here for any values at or beyond the usual limits of such assays
Details: source organism: Giardia lamblia ATCC 50803
pKd: −log10 of the molar value.
quantity-name: pKd

seq: RTMPLSRFT
quantity-name: pKd
measured-value: ≤ 4.70

----------
Target: HLA-B*39:01
Experiment: IEDB peptide-MHC binding, purified MHC/competitive/fluorescence; filed as Kd, often an IC50 or EC50 that approximates it; bounds were set here for any values at or beyond the usual limits of such assays
Conditions: source organism: Canarypox virus
pKd: −log10 of the molar value.

seq: GTIIVHPNK
pKd: ≤ 4.70

----------
Target: HLA-B*45:06
Test: IEDB peptide-MHC binding, purified MHC/competitive/fluorescence; filed as Kd, often an IC50 or EC50 that approximates it; bounds were set here for any values at or beyond the usual limits of such assays
Conditions: source organism: Escherichia coli O139:H28 str. E24377A
pKd: −log10 of the molar value.
quantity-name: pKd

seq: REWGWRIPF
measured-value: ≤ 5.30

----------
Molecular target: HLA-A*02:50
Assay: IEDB peptide-MHC binding, purified MHC/competitive/fluorescence; filed as Kd, often an IC50 or EC50 that approximates it; bounds were set here for any values at or beyond the usual limits of such assays
Settings: source organism: Mycobacterium tuberculosis H37Ra
pKd: −log10 of the molar value.
quantity-name: pKd

seq: SFYGYGFNV
measured-value: 7.65

----------
Target: HLA-A*24:02
Assay: IEDB peptide-MHC binding, purified MHC/competitive/radioactivity; filed as Kd, often an IC50 or EC50 that approximates it; bounds were set here for any values at or beyond the usual limits of such assays
Conditions: source organism: Lassa virus Josiah
pKd: −log10 of the molar value.
quantity-name: pKd

seq: GIDVTDLFA
quantity-name: pKd
measured-value: ≤ 4.11

----------
In this section we review reported Kd values for a set of sequences.
Target: HLA-B*39:01
Test: IEDB peptide-MHC binding, purified MHC/direct/fluorescence; filed as Kd, often an IC50 or EC50 that approximates it; bounds were set here for any values at or beyond the usual limits of such assays
Conditions: source organism: Yersinia pestis CA88-4125
quantity-name: Kd (µM)

seq: QQSEARRML
measured-value: 2.09
//
seq: RPQLWRYRW
measured-value: 3.18

----------
Biological target: HLA-B*40:02
Experiment: IEDB peptide-MHC binding, cellular MHC/competitive/fluorescence; bounds were set here for any values at or beyond the usual limits of such assays
Conditions: source organism: Homo sapiens
pIC50: −log10 of the molar value.

seq: SELSPGRSV
pIC50: 5.96

----------
Target: HLA-A*02:01
Assay: IEDB peptide-MHC binding, purified MHC/competitive/fluorescence; filed as Kd, often an IC50 or EC50 that approximates it; bounds were set here for any values at or beyond the usual limits of such assays
Conditions: source organism: Giardia lamblia ATCC 50803
quantity-name: Kd

seq: TELPLAYER
quantity-name: Kd
measured-value: ≥ 20 µM
--
seq: RTMPLSRFT
quantity-name: Kd
measured-value: ≥ 20 µM

----------
Target: HLA-B*15:17
Test: IEDB peptide-MHC binding, purified MHC/direct/fluorescence; filed as Kd, often an IC50 or EC50 that approximates it; bounds were set here for any values at or beyond the usual limits of such assays
Settings: source organism: Escherichia coli O157:H7
quantity-name: Kd

seq: REWGWRIPF
measured-value: ≥ 20 µM

----------
In this section we review reported Kd values for a set of sequences.
Molecular target: HLA-B*39:01
Assay: IEDB peptide-MHC binding, purified MHC/competitive/fluorescence; filed as Kd, often an IC50 or EC50 that approximates it; bounds were set here for any values at or beyond the usual limits of such assays
Conditions: source organism: Yersinia pestis Nepal516

seq: ILHRLAPWI
Kd: ≥ 20 µM
//
seq: LPLNRAYPL
Kd: 0.0093 µM
//
seq: YADGGQWYN
Kd: ≥ 20 µM
